- EXPERIMENTAL SYSTEM: Platelet glycoprotein 4 (Mus musculus) (UniProt Q08857)
- Sequence (Q08857 whole entry): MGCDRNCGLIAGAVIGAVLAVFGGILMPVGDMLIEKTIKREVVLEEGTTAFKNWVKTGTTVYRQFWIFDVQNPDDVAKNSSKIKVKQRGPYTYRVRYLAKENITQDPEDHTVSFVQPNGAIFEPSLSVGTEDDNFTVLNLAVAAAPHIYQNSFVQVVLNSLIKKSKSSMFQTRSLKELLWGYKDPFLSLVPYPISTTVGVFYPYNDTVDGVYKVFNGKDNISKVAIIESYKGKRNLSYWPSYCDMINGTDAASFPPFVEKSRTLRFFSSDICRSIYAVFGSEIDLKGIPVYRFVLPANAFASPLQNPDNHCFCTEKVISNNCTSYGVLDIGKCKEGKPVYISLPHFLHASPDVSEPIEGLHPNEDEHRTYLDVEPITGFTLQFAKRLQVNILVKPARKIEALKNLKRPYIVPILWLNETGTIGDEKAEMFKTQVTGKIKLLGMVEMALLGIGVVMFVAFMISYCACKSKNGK
- PROCEDURE SUMMARY: Modulation activity at CD36 in mouse RAW264.7 cells assessed as inhibition of TLR-2 agonist R-FSL-1-induced NO overproduction relative to control
- Format: cell-based
- Set-up: concentration or dose not given beside the values
- CONDITION DESCRIPTION: concentration not given here
Assign true to entries whose inhibition meets or exceeds 20%; assign false to the rest.

>  <SMILES>
C=CCN1CC#CCN(N)C(=O)N[C@H](Cc2c[nH]c3ccccc23)C(=O)N[C@@H](C)C(=O)N[C@@H](Cc2c[nH]c3ccccc23)C(=O)N[C@H](Cc2ccccc2)C(=O)N[C@H](C(N)=O)CCCC1

>  <CLASS ASSIGNMENT>
false

$$$$
>  <SMILES>
C=CCN1CC#CC[C@H](NC(=O)[C@H](C)N)C(=O)N[C@H](Cc2c[nH]c3ccccc23)C(=O)N[C@@H](C)C(=O)N[C@@H](Cc2c[nH]c3ccccc23)C(=O)N[C@H](Cc2ccccc2)C(=O)N[C@H](C(N)=O)CCCC1

>  <CLASS ASSIGNMENT>
false

$$$$
>  <SMILES>
C=CCN1CC#CCN(NC(=O)[C@H](C)N)C(=O)N[C@@H](C)C(=O)N[C@@H](Cc2c[nH]c3ccccc23)C(=O)N[C@H](Cc2ccccc2)C(=O)N[C@H](C(N)=O)CCCC1

>  <CLASS ASSIGNMENT>
true

$$$$
>  <SMILES>
C=CCN1CC#CC[C@@H](NC(=O)[C@H](C)N)C(=O)N[C@H](Cc2c[nH]c3ccccc23)C(=O)N[C@@H](C)C(=O)N[C@@H](Cc2c[nH]c3ccccc23)C(=O)N[C@H](Cc2ccccc2)C(=O)N[C@H](C(N)=O)CCCC1

>  <CLASS ASSIGNMENT>
false

$$$$
>  <SMILES>
C=CCN1CC#CC[C@H](NC(=O)[C@H](C)N)C(=O)N[C@@H](C)C(=O)N[C@@H](Cc2c[nH]c3ccccc23)C(=O)N[C@H](Cc2ccccc2)C(=O)N[C@H](C(N)=O)CCCC1

>  <CLASS ASSIGNMENT>
false

$$$$
>  <SMILES>
C=CCN1CC#CC[C@@H](NC(=O)[C@H](C)N)C(=O)N[C@@H](C)C(=O)N[C@@H](Cc2c[nH]c3ccccc23)C(=O)N[C@H](Cc2ccccc2)C(=O)N[C@H](C(N)=O)CCCC1

>  <CLASS ASSIGNMENT>
false

$$$$
>  <SMILES>
C=CCN1CC#CCN(NC(=O)[C@H](C)N)C(=O)N[C@H](Cc2c[nH]c3ccccc23)C(=O)N[C@@H](C)C(=O)N[C@@H](Cc2c[nH]c3ccccc23)C(=O)N[C@H](Cc2ccccc2)C(=O)N[C@H](C(N)=O)CCCC1

>  <CLASS ASSIGNMENT>
true

$$$$

###

Below, each entry is listed alongside its reported Activity.
- EXPERIMENTAL SYSTEM: Platelet glycoprotein 4 (Mus musculus)
- PROCEDURE SUMMARY: Modulation activity at CD36 in mouse J774 cells assessed as promotion of cholesterol efflux at 100 nM pre-incubated for 17 hrs before apolipoprotein A-I addition for 4 hrs by fluorescent-labeled cholesterol kit based assay relative to control
- Type: cell-based

>  <SMILES>
C=CCN1CC#CCN(NC(=O)[C@H](C)NC(C)=O)C(=O)N[C@H](Cc2c[nH]c3ccccc23)C(=O)N[C@@H](C)C(=O)N[C@@H](Cc2c[nH]c3ccccc23)C(=O)N[C@H](Cc2ccccc2)C(=O)N[C@H](C(N)=O)CCCC1

>  <EXPERIMENTAL SYSTEM>
Platelet glycoprotein 4 (Mus musculus)

>  <UNITS>
%

>  <Activity>
17

$$$$
>  <SMILES>
C=CCN1CC#CC[C@@H](NC(=O)[C@H](C)N)C(=O)N[C@@H](C)C(=O)N[C@@H](Cc2c[nH]c3ccccc23)C(=O)N[C@H](Cc2ccccc2)C(=O)N[C@H](C(N)=O)CCCC1

>  <EXPERIMENTAL SYSTEM>
Platelet glycoprotein 4 (Mus musculus)

>  <UNITS>
%

>  <Activity>
6

$$$$
>  <SMILES>
C=CCN1CC#CC[C@@H](NC(=O)[C@H](C)N)C(=O)N[C@H](Cc2c[nH]c3ccccc23)C(=O)N[C@@H](C)C(=O)N[C@@H](Cc2c[nH]c3ccccc23)C(=O)N[C@H](Cc2ccccc2)C(=O)N[C@H](C(N)=O)CCCC1

>  <EXPERIMENTAL SYSTEM>
Platelet glycoprotein 4 (Mus musculus)

>  <UNITS>
%

>  <Activity>
6

$$$$
